From: ChEMBL document CHEMBL5518246

Assay: Metabolic stability in human liver microsomes assessed as unbound intrinsic clearance at 0.5 uM measured after 4 hrs
Assay type: ADME, Microsome
Value kind: CL free (mL/min/kg)

{"Substance smiles": "C[C@H](NC(=O)[C@]1(NC(=O)c2cc(Cl)c(Cl)[nH]2)CO[C@H](c2ccccc2)C1)c1ncc2c(n1)CN(CCC(F)(F)F)C2", "CL free (mL/min/kg)": 183}

(1) O=C(N[C@@H](CCc1ccccc1)C(=O)NCC1(CO)CCOCC1)c1cc(Cl)c(Cl)[nH]1
(2) O=C(N[C@@H](CCc1ccccc1)C(=O)NCc1ncc2c(n1)CCC2)c1cc(Cl)c(Cl)[nH]1
Inquiry: For the pair 1 and 2 , which member has the lower CL free number? Field: selected label. Fill in the label of the entry you choose.
Reply text: 1
(1: 135 mL/min/kg, 2: 1100 mL/min/kg)
